target: HLA-A*2402 (human)
assayMetric: relative binding ratio (IC50 of standard peptide / IC50 of test peptide)

### Prompt // query relative binding ratio (IC50 of standard peptide / IC50 of test peptide) value for entry PYAVCDKCL (modifications not checked) [HPV16 E6 66 …]
### Response 0.0078

### Prompt Can you handle LYNLLIRCL (modifications not checked) [HPV45 E6 98 peptide … (SEQ ID NO: 15730)] next?
### Response 0.0001

### Prompt Can you handle VYCKQQLL (modifications not checked) [HPV16 E6 38 VYCKQQLL] next?
### Response 0.0069

### Prompt Can you handle PYKLPDLCTEL (modifications not checked) [HPV45 E6 11 peptide … (SEQ ID NO: 15737)] next?
### Response 0.0064

### Prompt Can you handle FYSRIREL (modifications not checked) [HPV45 E6 71 peptide FYSRIREL (SEQ ID NO: 15714)] next?
### Response 0.026

Others:
### Prompt // query relative binding ratio (IC50 of standard peptide / IC50 of test peptide) value for entry VYRDGNPY (modifications not checked) [HPV16 E6 60 VYRDGNPY]
### Response 0.0001
